- MEASURED_ON: Receptor-interacting serine/threonine-protein kinase 2 (Homo sapiens, UniProt O43353)
- Sequence (O43353 whole entry): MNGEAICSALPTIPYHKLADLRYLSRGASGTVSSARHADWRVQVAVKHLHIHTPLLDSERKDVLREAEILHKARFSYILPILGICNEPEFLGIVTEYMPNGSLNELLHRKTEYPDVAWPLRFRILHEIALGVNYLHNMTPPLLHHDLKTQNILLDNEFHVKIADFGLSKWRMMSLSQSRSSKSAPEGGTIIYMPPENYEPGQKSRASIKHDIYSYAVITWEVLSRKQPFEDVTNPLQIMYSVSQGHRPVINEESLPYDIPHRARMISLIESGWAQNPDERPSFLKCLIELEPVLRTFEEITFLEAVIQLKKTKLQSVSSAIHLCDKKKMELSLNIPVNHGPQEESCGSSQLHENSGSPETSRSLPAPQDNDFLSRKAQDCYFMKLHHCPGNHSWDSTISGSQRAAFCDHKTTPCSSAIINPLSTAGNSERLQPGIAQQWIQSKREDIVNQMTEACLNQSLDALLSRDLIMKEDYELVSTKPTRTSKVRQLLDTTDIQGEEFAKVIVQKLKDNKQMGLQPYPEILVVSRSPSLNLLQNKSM
The source made the active and inactive calls.
The reply should be one of these categories: t (active), f (inactive)

QUERY: Recorded test call requested for CNC(=O)c1cccc2cc(Oc3ccnc4cc(OCC5(N)CC5)c(OC)cc34)ccc12 [LUCITANIB]
RESULT: t

QUERY: Recorded test call requested for `Cc1nc2cc(-c3nn(C(C)C)c4ncnc(N)c34)ccc2o1`
RESULT: t

QUERY: Recorded test call requested for Cc1cc(C(=O)NOCCO)c(Nc2ccc(I)cc2F)n(C)c1=O [AZD-8330]
RESULT: f

QUERY: Recorded test call requested for Cc1csc(-c2nnc(Nc3ccc(Oc4ncccc4-c4ccnc(N)n4)cc3)c3ccccc23)c1 [AMG-900]
RESULT: f

QUERY: Recorded test call requested for Cc1cc(Nc2ncc(Cl)c(Nc3ccccc3S(=O)(=O)C(C)C)n2)c(OC(C)C)cc1C1CCNCC1 [CERITINIB]
RESULT: f

QUERY: Recorded test call requested for CN(C[C@@H]1COCCO1)S(=O)(=O)Nc1ccc2ccc3ncc(-c4cnn(C)c4)cc3c(=O)c2c1 [MK-2461]
RESULT: f

QUERY: Recorded test call requested for `C[C@@H](Oc1cc(C(=O)Nc2ccc(C(=O)N3CCN(C)CC3)cc2)nnc1N)c1c(Cl)ccc(F)c1Cl`
RESULT: f

QUERY: Recorded test call requested for CN1C/C=C/CCOc2cccc(c2)-c2ccnc(n2)Nc2cccc(c2)C1 [ZOTIRACICLIB]
RESULT: f

###

- MEASURED_ON: Mitogen-activated protein kinase 14 (Homo sapiens, UniProt Q16539)
- Sequence (Q16539 whole entry): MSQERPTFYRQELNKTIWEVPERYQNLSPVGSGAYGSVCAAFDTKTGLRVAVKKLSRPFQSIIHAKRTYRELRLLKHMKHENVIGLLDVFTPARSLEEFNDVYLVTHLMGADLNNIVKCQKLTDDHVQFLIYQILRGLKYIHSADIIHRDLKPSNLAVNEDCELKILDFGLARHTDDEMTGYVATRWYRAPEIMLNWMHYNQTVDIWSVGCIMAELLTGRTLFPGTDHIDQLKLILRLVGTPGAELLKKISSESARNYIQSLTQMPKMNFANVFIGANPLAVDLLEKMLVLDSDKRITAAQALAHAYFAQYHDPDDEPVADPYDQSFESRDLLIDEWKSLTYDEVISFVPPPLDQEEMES
The source made the active and inactive calls.
The reply should be one of these categories: active, inactive

Previously resolved entries follow.
MOLECULE | MEASURED_ON | CAT
CO[C@H]1C[C@@H]2CC[C@@H](C)[C@@](O)(O2)C(=O)C(=O)N2CCCC[C@H]2C(=O)O[C@H]([C@H](C)C[C@@H]2CC[C@@H](O)[C@H](OC)C2)CC(=O)[C@H](C)/C=C(\C)[C@@H](O)[C@@H](OC)C(=O)[C@H](C)C[C@H](C)/C=C/C=C/C=C/1C [SIROLIMUS] | Mitogen-activated protein kinase 14 (Homo sapiens, UniProt Q16539) | inactive
C[C@@H](Oc1cc(C(=O)Nc2ccc(C(=O)N3CCN(C)CC3)cc2)nnc1N)c1c(Cl)ccc(F)c1Cl | Mitogen-activated protein kinase 14 (Homo sapiens, UniProt Q16539) | inactive
Cc1cc(Nc2ncnc3ccc(NC4=NC(C)(C)CO4)cc23)ccc1Oc1ccn2ncnc2c1 [TUCATINIB] | Mitogen-activated protein kinase 14 (Homo sapiens, UniProt Q16539) | inactive
CNC(=O)c1cc(Oc2ccc(NC(=O)Nc3cc(C(C)(C)C)nn3-c3ccc4ncccc4c3)c(F)c2)ccn1 [REBASTINIB] | Mitogen-activated protein kinase 14 (Homo sapiens, UniProt Q16539) | active
NC(=O)Nc1cc(-c2cccc(F)c2)sc1C(=O)N[C@H]1CCCNC1 [AZD-7762] | Mitogen-activated protein kinase 14 (Homo sapiens, UniProt Q16539) | inactive
O=C1NC(=O)[C@@H](c2cn3c4c(cccc24)CCC3)[C@@H]1c1c[nH]c2ccccc12 [TIVANTINIB] | Mitogen-activated protein kinase 14 (Homo sapiens, UniProt Q16539) | inactive

QUERY: Recorded test call requested for CNC(=O)c1cccc2cc(Oc3ccnc4cc(OCC5(N)CC5)c(OC)cc34)ccc12 [LUCITANIB]
RESULT: inactive

QUERY: Recorded test call requested for `C=CC(=O)N1CCC[C@H](n2c(=O)n(-c3ccc(Oc4ccccc4)cc3)c3c(N)ncnc32)C1`
RESULT: inactive

QUERY: Recorded test call requested for Cc1nc(NC(=O)N2CCC[C@H]2C(N)=O)sc1-c1ccnc(C(C)(C)C(F)(F)F)c1 [ALPELISIB]
RESULT: inactive

QUERY: Recorded test call requested for O=C(Cc1ccc(-c2ccc(OCCN3CCOCC3)cc2)cn1)NCc1ccccc1 [TIRBANIBULIN]
RESULT: inactive

QUERY: Recorded test call requested for CCn1c(C(=O)N(C2CC2)C2CC2)cc2c3c(ncn3C)c(Nc3cc(C)n(C)n3)nc21 [BMS-911543]
RESULT: inactive

QUERY: Recorded test call requested for CO[C@H]1C[C@@H]2CC[C@@H](C)[C@@](O)(O2)C(=O)C(=O)N2CCCC[C@H]2C(=O)O[C@H]([C@H](C)C[C@@H]2CC[C@@H](OC(=O)C(C)(CO)CO)[C@H](OC)C2)CC(=O)[C@H](C)/C=C(\C)[C@@H](O)[C@@H](OC)C(=O)[C@H](C)C[C@H](C)/C=C/C=C/C=C/1C [TEMSIROLIMUS]
RESULT: inactive

QUERY: Recorded test call requested for Cc1nc2cc(-n3ncc(C(=O)c4cc5ccccc5[nH]4)c3N)ccc2[nH]1 [FGFR INHIBITOR DEBIO 1347]
RESULT: inactive
